Reported phosphorylation enrichment is given for each of the following sequences.
- Test system: AncSZ;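 also: 11-residue human phosphosite peptides and single-mutation variants displayed on the E. coli surface, counted by deep sequencing, each peptide's frequency after selection divided by its frequency in the unselected input library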;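 also: frequency after pTyr selection over input frequency; kinase dosed for 20-30% of maximal phosphorylation in three min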
- protocolDetails: phosphorylation enrichment, bacterial display (enrichment ratio); higher = better substrate or ligand; peptides without Tyr show the background
Write the number on its own, no unit after it.

MSRLKYPVSQQ [BTK_Y375_I370M] :: 0.573
LQRCKYSHMEP [TEX45_Y434] :: 1.21
IGRHAYGDQYR [IDH1_Y135] :: 0.56
RPSELYYSKIG [SMG1_Y2253] :: 1.08
CCNHPYLINGA [CHD7_Y1256] :: 0.651

So, ADARMYGVLLW [PLP1_Y207_P211L] ? Its phosphorylation enrichment was 1.12

Recorded values, source the supplement of paper PMC10065799.
